# assay.target: T1, hUCN1 (CT Biotin) (human, UniProt P55089 83-122, biotin at the C-terminus)
# T1 construct: also called human UCN1 (CT biotin)
# T1 peptide (looked up): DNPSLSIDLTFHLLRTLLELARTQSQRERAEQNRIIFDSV
# measurement.notes: ELISA, biotin peptide on streptavidin plate
Reported EC50 values follow for various binders
State just the number; it will be interpreted in nM.

[
  {
    "binder": "PR302309-11 (antibody, human IgG1, kappa, V domains shown, Humanized variant of PR302309) VH: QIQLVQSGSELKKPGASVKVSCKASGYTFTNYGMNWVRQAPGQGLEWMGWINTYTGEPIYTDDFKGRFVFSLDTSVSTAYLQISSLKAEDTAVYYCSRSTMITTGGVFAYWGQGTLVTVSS VL: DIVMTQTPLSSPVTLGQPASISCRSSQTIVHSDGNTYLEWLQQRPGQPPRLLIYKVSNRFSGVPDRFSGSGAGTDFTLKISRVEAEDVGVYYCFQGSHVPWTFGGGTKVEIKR",
    "unit.label": "nM",
    "test.result": 0.451
  }
]

-- ask Returns the measured EC50 for the input binder. Input: PR302341-60 (antibody, human IgG1, kappa, V domains shown, Humanized, PTM-removed variant of PR302341) VH: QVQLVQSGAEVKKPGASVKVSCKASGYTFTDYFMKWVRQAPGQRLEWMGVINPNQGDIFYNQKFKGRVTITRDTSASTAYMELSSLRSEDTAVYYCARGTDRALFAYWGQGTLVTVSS VL: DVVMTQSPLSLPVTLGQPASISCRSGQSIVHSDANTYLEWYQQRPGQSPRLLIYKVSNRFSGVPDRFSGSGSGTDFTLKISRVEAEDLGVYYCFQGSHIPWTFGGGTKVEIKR
-- reply 0.036

-- ask Could you do the same for PR302341-55 (antibody, human IgG1, kappa, V domains shown, Humanized, PTM-removed variant of PR302341) VH: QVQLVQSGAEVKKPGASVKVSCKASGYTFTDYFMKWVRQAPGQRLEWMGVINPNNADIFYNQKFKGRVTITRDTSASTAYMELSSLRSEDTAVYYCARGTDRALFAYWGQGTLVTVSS VL: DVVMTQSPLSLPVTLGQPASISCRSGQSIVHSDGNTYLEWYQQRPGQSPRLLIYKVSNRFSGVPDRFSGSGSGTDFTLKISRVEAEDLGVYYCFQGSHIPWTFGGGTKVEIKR , please?
-- reply 0.018

-- ask Same thing, different binder: PR302341-48 (antibody, human IgG1, kappa, V domains shown, Humanized, PTM-removed variant of PR302341) VH: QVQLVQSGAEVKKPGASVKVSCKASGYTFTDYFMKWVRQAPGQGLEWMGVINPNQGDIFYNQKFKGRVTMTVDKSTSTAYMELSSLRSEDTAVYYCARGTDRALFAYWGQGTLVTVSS VL: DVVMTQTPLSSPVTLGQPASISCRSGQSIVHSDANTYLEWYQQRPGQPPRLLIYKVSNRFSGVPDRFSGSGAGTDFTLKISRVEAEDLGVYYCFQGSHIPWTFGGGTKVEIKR
-- reply 0.023

-- ask Same thing, different binder: PR302309-8 (antibody, human IgG1, kappa, V domains shown, Humanized variant of PR302309) VH: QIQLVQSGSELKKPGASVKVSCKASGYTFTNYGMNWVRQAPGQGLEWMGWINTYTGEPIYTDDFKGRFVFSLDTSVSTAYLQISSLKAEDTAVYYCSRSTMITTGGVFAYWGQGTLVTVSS VL: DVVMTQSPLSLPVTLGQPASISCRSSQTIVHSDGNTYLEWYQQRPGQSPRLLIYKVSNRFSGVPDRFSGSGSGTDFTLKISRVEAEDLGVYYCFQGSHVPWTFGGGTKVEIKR
-- reply 1.88

-- ask Also PR303394 (antibody, human IgG1, kappa, V domains shown, also called analog of CTRND05) VH: EVQLQQSGPELVKPGVSMKISCKASGYSFTDSTMNWVKQSHGKNLEWIGLIHPDNGGTIYNQKFKGKATLTVHKSSSTAYMELLSLTSEDSAVYYCANGFAYWGQGTLVTVSA VL: DVVMTQTPLSLPVSLGDQASISCRSSQSLLHSNGNTYLHWYLQKPGQSPELLIYKVSNRFSGVPDRFSGSGSGTDFTLKISRVEAEDLGVYFCSQSTHVPLTFGAGTKLELKR ?
-- reply 0.022

-- ask What about PR302341-28 (antibody, human IgG1, kappa, V domains shown, Humanized, PTM-removed variant of PR302341) VH: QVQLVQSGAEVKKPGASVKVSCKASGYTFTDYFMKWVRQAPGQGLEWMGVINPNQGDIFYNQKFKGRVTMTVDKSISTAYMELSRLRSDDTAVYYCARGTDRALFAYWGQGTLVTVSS VL: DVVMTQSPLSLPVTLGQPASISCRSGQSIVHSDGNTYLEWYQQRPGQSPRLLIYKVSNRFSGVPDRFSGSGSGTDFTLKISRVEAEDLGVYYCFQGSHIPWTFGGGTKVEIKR ?
-- reply 0.032
